target.or.system: DNA topoisomerase 1 (Homo sapiens) (UniProt P11387)
Sequence (P11387 whole entry): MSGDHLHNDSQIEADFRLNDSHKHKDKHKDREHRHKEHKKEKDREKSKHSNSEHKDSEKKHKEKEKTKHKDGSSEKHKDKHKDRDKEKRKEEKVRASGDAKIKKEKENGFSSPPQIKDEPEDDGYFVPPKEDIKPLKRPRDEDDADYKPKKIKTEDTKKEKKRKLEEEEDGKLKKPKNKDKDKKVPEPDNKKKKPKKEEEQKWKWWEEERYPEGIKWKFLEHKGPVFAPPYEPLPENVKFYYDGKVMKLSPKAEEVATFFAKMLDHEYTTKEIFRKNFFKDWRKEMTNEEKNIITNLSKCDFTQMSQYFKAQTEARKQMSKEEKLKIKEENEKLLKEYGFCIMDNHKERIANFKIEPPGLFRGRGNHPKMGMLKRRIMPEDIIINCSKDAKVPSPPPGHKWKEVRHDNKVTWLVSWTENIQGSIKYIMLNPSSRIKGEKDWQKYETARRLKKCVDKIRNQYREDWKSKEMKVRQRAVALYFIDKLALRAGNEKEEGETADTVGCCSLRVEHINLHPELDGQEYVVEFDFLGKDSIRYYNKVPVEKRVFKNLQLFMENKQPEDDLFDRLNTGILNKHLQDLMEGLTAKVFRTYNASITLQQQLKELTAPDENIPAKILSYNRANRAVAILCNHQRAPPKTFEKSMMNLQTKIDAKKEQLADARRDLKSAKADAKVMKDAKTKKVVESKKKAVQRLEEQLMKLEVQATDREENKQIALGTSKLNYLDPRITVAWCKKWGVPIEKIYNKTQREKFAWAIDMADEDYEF
assay.name: Inhibition of human recombinant DNA topoisomerase 1-mediated DNA relaxation at 100 uM incubated for 30 mins using pBR322 DNA substrate by ethidium bromide dye-based agarose gel electrophoresis
property.label: inhibition (%)
Answers are plain numbers, in %.

Previously resolved entries follow.
| smiles | readout.value |
| --- | --- |
| COc1ccc(-c2cc3cc(C)ccc3c(-c3cccc(O)c3)n2)c(C)c1 | 73.4 |
| COc1ccc(-c2cc3cc(C)ccc3c(-c3cccc(O)c3)n2)cc1OC | 1.7 |
| COc1ccc(-c2cc3ccccc3c(-c3ccc(OC)cc3)n2)cc1 | 0 |
| COc1cccc(-c2nc(-c3ccc(OC)c(OC)c3)cc3cc(C)ccc23)c1 | 2.9 |
| COc1ccc(-c2cc3ccccc3c(-c3cccc(O)c3)n2)cc1 | 9.4 |
| COc1cc(OC)cc(-c2cc3ccccc3c(-c3cccc(N)c3)n2)c1 | 0 |

Inquiry: If you can, please state the reported inhibition value of COc1ccc(-c2cc3cc(C)ccc3c(-c3ccc(O)cc3)n2)cc1OC .
Reply text: 0.3
